Source listed as PubChem BioAssay.

target: Dickkopf-related protein 1 (Homo sapiens); assay: DKK1 binders on small-molecule microarrays, primary screen, biochemical, small-molecule microarray, 635 nm fluorescence scan (AID 1106); conditions: DKK1 binding, higher = more signal;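 further: score merges emission near 667 nm with signal to noise over three replicate slides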
property_name: composite z-score
Could you respond with only the numeric value?

Consider the compound shown here: CCCCCN1CC=CC23O[C@@H]4/C=C\CCC(C)OC(=O)C4[C@H]2C(=O)N(CCO)[C@@H]3C1=O (some centres not stated) What is its recorded composite z-score?
-1.2

Consider the compound shown here: `[N-]=[N+]=NCc1ccccc1C[C@@]1(C(=O)O)N=C(c2ccc(OCCCO)cc2)O[C@@H]1c1ccccc1` What is its recorded composite z-score?
-1.09

Consider the compound shown here: `C=C(COC)C(=O)CC[C@H](OC(=O)c1cccnc1)c1cccc(OCCO)c1` What is its recorded composite z-score?
0.994

Consider the compound shown here: `O=C(NCC(F)(F)F)[C@@H]1c2ccccc2C(=O)N(C2Cc3ccccc3C2)[C@H]1c1ccc(CO)cc1` What is its recorded composite z-score?
-0.808

Consider the compound shown here: `O=C1O[C@H](c2ccccc2)[C@H](c2ccccc2)N2[C@H]1[C@@H](C(=O)Nc1nc3ccccc3s1)[C@]1(C(=O)Nc3ccc(C#CCCO)cc31)[C@H]2c1ccccc1OCCO` What is its recorded composite z-score?
0.328

Consider the compound shown here: C=CCC(OC(C)=O)[C@@H]1[C@@H](N(Cc2cc3ccccc3o2)C(=O)c2ccc(-c3ccccc3)cc2)c2cc(OCCCO)ccc2N1C(=O)c1ccc(-c2ccccc2)cc1 (some centres not stated) What is its recorded composite z-score?
-0.0818

Consider the compound shown here: `COc1ccc([Si](C)(C)[C@H]2[C@H](CC(=O)N(CCO)Cc3ccccc3)O[C@@]3(C(=O)N(Cc4ccc(N5CCOC5=O)cc4)c4ccccc43)[C@@H]2C)cc1` What is its recorded composite z-score?
0.512
